target: Neuropeptide Y1 (Homo sapiens); experiment: Receptor binding Neuropeptide Y1; details: radioligand [125I]-PYY, read-out: Ki(nM) Compound 1
Sequence (P25929 whole entry): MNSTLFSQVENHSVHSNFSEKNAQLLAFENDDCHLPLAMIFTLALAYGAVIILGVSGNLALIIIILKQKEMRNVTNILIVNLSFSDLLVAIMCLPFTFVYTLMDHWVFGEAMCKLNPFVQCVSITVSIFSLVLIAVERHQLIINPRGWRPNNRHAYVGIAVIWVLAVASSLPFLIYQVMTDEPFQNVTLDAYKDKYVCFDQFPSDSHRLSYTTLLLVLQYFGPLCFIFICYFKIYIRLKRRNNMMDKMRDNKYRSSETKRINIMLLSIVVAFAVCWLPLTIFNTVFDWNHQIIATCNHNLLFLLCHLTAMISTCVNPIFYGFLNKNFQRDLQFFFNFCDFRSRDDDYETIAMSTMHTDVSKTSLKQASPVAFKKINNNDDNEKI
MEASUREMENT TYPE: Ki

query: Quick one: Ki for Nc1cc2cccc(N3CCNCC3)c2oc1=O ?
result: > 1000 nM

---

molecular target: nicotine (Rattus norvegicus, UniProt P09483+P12390); assay: Receptor binding nicotine; conditions: radioligand [3H]-cytisine, read-out: Ki(nM) Compound 1
Sequence (P12390 25-500): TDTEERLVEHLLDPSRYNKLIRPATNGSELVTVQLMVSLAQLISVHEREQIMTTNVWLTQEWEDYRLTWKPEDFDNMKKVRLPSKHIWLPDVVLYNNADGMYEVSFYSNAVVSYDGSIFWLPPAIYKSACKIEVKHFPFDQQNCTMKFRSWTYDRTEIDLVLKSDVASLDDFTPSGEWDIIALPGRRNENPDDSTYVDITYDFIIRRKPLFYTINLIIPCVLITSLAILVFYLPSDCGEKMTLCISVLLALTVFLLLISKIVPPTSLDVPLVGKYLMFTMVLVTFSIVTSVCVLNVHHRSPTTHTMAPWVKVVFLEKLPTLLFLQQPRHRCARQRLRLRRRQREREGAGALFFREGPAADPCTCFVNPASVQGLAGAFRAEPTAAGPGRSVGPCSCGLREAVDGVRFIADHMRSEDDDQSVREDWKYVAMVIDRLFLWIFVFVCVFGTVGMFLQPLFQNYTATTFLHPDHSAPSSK
Sequence (P09483 31-630): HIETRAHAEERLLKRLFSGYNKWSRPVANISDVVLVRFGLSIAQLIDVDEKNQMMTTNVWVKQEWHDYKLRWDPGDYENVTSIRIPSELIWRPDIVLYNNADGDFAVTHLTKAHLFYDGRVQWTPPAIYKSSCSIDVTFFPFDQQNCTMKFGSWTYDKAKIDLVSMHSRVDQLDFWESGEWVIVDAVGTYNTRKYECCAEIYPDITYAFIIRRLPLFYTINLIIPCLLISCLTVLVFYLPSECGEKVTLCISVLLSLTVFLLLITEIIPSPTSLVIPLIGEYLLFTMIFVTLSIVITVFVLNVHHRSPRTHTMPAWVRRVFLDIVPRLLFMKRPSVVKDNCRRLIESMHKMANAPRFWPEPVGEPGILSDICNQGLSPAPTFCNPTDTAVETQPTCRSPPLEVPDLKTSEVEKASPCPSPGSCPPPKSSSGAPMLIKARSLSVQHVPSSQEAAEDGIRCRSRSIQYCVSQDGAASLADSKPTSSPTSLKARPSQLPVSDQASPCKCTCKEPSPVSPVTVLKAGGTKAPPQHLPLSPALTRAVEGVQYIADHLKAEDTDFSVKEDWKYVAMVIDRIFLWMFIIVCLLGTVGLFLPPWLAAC
MEASUREMENT TYPE: Ki

query: Quick one: Ki for Nc1cc2cccc(N3CCNCC3)c2oc1=O ?
result: > 10000 nM

---

Target: Glycine strychn. insens. (Rattus norvegicus, UniProt P35439)
Test: Receptor binding Glycine strychn. insens.
Conditions: radioligand [3H]-MDL105519, read-out: Ki(nM) Compound 1
Description: Receptor binding data were obtained by CEREP (128, rue Danton, 92500 Rueil-Malmaison, France) or at Solvay Pharmaceuticals B.V., using well documented standard procedures. Affinity for 5-HT1A receptors for instance, was determined by testing the ability of the compounds of the invention to displace [^3H]-2-(di-n-propylamino)-8-hydroxytetralin ([^3H]-8-OH-DPAT) from its specific binding sites in rat frontal cortex homogenates. […]
MEASUREMENT TYPE: Ki

query: Quick one: Ki for Nc1cc2cccc(N3CCNCC3)c2oc1=O ?
result: > 10000 nM

The reported numbers originate from patent US20050215551A1.
